# Test system: NCI-H358
# Measurement notes: Anti-proliferation assay (CellTiter-Glo 2.0), combination index, NCI-H358
# Assay type: cell-based
# Condition summary: Compound 1 1110 + combination drug 10000 nmol/L (1:9)
Fa vs 0.8: less than gives 1 (yes); not less than gives 0 (no).

stdin: Please state whether Fa is below 0.8 for Cc1nc(NC(=O)N2CCC[C@H]2C(N)=O)sc1-c1ccnc(C(C)(C)C(F)(F)F)c1
stdout: 1 (yes)

stdin: Please check: Fa for COc1cc2c(Oc3ccc4[nH]c(C)cc4c3F)ccnc2cc1OCC1(N)CC1 , strictly under 0.8 or not?
stdout: 0 (no)

stdin: Please let me know if Cn1cnc2c(F)c(Nc3ccc(Br)cc3F)c(C(=O)NOCCO)cc21 shows Fa below 0.8.
stdout: 0 (no)

----------
# System: NCI-H358
# Measurement notes: Anti-proliferation assay (CellTiter-Glo 2.0), combination index, NCI-H358
# Type: cell-based
# Condition summary: Compound 1 123 + combination drug 1110 nmol/L (1:9)
Answer Condition not met if CI is under 0.3, and Condition met if it is 0.3 or more.

Below are worked cases with known answers.
{"Structure": "CCN(CC)CCNC(=O)c1c(C)[nH]c(/C=C2\\C(=O)Nc3ccc(F)cc32)c1C", "Class": "Condition met"}
{"Structure": "Cn1cnc2c(F)c(Nc3ccc(Br)cc3F)c(C(=O)NOCCO)cc21", "Class": "Condition not met"}
{"Structure": "Cc1nc(NC(=O)N2CCC[C@H]2C(N)=O)sc1-c1ccnc(C(C)(C)C(F)(F)F)c1", "Class": "Condition met"}
{"Structure": "C#Cc1cccc(Nc2ncnc3cc(OCCOC)c(OCCOC)cc23)c1", "Class": "Condition not met"}

stdin: Is CI for COc1cc2c(Oc3ccc4[nH]c(C)cc4c3F)ccnc2cc1OCC1(N)CC1 at or above 0.3?
stdout: Condition met

----------
# System: NCI-H358
# Measurement notes: Anti-proliferation assay (CellTiter-Glo 2.0), combination index, NCI-H358
# Format: cell-based
# Condition summary: Compound 1 41.2 + combination drug 370 nmol/L (1:9)
Experimental endpoint: CI
One number for each entry.

Sample answers from the record:
{"Molecule": "C#Cc1cccc(Nc2ncnc3cc(OCCOC)c(OCCOC)cc23)c1 [Erlotinib]", "Target or system": "NCI-H358", "Val": 0.102}
{"Molecule": "Cc1nc(NC(=O)N2CCC[C@H]2C(N)=O)sc1-c1ccnc(C(C)(C)C(F)(F)F)c1 [Alpelisib]", "Target or system": "NCI-H358", "Val": 0.451}
{"Molecule": "COc1cc2c(Nc3ccc(Br)cc3F)ncnc2cc1OCC1CCN(C)CC1 [Vandetanib]", "Target or system": "NCI-H358", "Val": 0.322}
{"Molecule": "Cn1cnc2c(F)c(Nc3ccc(Br)cc3F)c(C(=O)NOCCO)cc21 [Binimetinib]", "Target or system": "NCI-H358", "Val": 0.196}
{"Molecule": "COc1cc2c(Oc3ccc4[nH]c(C)cc4c3F)ccnc2cc1OCC1(N)CC1 [Anlotinib]", "Target or system": "NCI-H358", "Val": 0.557}

stdin: Kindly state the measured CI obtained for CCN(CC)CCNC(=O)c1c(C)[nH]c(/C=C2\C(=O)Nc3ccc(F)cc32)c1C [Sunitinib] with NCI-H358.
stdout: 0.502
